- target-entity: FIH (Homo sapiens, UniProt Q9NWT6)
- Sequence (Q9NWT6 whole entry): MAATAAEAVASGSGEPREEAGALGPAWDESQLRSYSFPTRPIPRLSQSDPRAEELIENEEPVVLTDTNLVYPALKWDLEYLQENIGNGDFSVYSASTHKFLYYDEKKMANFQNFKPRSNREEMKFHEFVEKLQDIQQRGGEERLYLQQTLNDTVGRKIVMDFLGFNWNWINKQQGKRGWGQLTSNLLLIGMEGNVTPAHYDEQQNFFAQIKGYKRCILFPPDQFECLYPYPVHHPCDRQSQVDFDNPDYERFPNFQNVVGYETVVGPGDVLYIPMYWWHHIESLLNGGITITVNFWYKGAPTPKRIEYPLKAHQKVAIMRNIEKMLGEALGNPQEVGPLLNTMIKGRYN
- method: FIH inhibition, SPE-MS-based assay
- Type: biochemical
- test-settings: FIH 150 nM, 95% confidence limits printed in parentheses, read-out: IC50 against FIH
Record form. Attribute: pIC50. Fill in for each entry.
One number for each entry, as −log10 of the molar value.

In the examples that follow, each entry is paired with its recorded pIC50.
compound	pIC50
CNC(=O)c1ccc(Nc2ccc(O)c(C(=O)NCC(=O)O)n2)cc1 [14h]	4.21
COC(=O)c1ccc(Nc2ccc(O)c(C(=O)NCC(=O)O)n2)cc1 [14g]	4.30

Proceeding to the next compound to report its pIC50.
For the compound O=C(O)CNC(=O)c1nc(Nc2ccc([N+](=O)[O-])cn2)ccc1O [14b] , what pIC50 is on record?
4.30
